Below, each entry is listed with its recorded pKi.
- Target or system: human recombinant 5-HT2C receptor (Homo sapiens)
- Sequence (P28335 33-458): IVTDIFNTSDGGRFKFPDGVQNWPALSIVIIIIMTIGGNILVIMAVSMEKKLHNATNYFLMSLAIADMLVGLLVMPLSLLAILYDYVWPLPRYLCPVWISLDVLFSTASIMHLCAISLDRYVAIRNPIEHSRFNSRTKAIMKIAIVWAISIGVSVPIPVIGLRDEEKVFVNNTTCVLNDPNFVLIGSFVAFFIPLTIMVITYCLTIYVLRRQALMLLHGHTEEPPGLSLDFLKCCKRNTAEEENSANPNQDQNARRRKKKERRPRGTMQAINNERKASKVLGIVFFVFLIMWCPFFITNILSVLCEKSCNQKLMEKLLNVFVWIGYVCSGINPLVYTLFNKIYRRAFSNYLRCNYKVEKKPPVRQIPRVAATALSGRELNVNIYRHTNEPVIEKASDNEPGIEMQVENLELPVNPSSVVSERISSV
- Procedure summary: Affinity for 5HT2 receptor binding sites, h5-HT2C, [3H]mesulergine
- Assay setup: CHO h5-HT2C membranes
pKi: −log10 of the molar value. Structures can show the parent of a compound that is named as a salt.

Molecule: CC(C)c1nc2c(c(-c3ccc(F)c(F)c3)n1)CNCC2 [Example 24, hydrochloride]
pKi: < 5.00
//
Molecule: Cc1cc(-c2nc(C(C)C)nc3c2CCN(Cc2ccccc2)C3)cs1 [Example 86, hydrochloride]
pKi: < 5.00
//
Molecule: Cc1ccc(-c2nc(Cc3ccc(F)cc3)ncc2CN(C)C)cc1
pKi: < 5.00
//
Molecule: c1ccc(Cc2nc3c(c(-c4ccccc4)n2)CCN(Cc2ccccc2)C3)cc1
pKi: < 5.00
//
Molecule: CC(C)c1nc2c(c(-c3ccc(C(F)(F)F)cc3)n1)CNCC2
pKi: < 5.00
//
Molecule: Cc1ccc(-c2nc(C(C)C)nc3c2CN(Cc2ccccc2)CC3C)cc1 (stereo not drawn)
pKi: < 5.00
